Species: Rattus norvegicus
experiment_summary: DrugMatrix - Regimen: Daily Repeat
Assay type: toxicity, organism-based, Sprague-Dawley
Set-up: regimen Daily Repeat, gender Male, age 6-8 weeks
assay_conditions: in vivo, po, 1500 mg/kg, 120 h, tissue Blood, route oral GAVAGE, dose level High, time 5 day, vehicle .5 % CMC
I'd be grateful if you could share measured MONOCYTE for these entries.
The reply should consist of the numeric value with the unit placed after it.

Ask: Entry O=C1CCc2cc(OCCCCc3nnnn3C3CCCCC3)ccc2N1 : reported MONOCYTE = ?
Result: 2.53%

Ask: Quick one: MONOCYTE for COC(=O)c1ccc(O)cc1 ?
Result: 0.33%

Ask: Suppose we examine the molecule CCOC(=O)[C@H](CCc1ccccc1)N[C@@H](C)C(=O)N1[C@H](C(=O)O)C[C@@H]2CCC[C@@H]21 ; what MONOCYTE value has been reported?
Result: 1.67%

Ask: Please report the recorded MONOCYTE for NS(=O)(=O)c1cc2c(cc1Cl)NCNS2(=O)=O [HYDROCHLOROTHIAZIDE] .
Result: 0.67%
